Hey, just so you know, these numbers are from patent US20250313635A1.

- System: T1, recombinant mouse αvβ1 integrin extracellular domains (mouse, UniProt P43406 1-988; P09055 1-728, Biotinylated on the Avitag (tag not in the letters); interchain disulfide between the coiled-coils (not in the letters).)
- T1 construct: Soluble heterodimer co-expressed in Expi293 cells; also called mαvβ1
- T1 sequence (P43406 31-988 limits assumed, form in doubt, chain 1 of 2): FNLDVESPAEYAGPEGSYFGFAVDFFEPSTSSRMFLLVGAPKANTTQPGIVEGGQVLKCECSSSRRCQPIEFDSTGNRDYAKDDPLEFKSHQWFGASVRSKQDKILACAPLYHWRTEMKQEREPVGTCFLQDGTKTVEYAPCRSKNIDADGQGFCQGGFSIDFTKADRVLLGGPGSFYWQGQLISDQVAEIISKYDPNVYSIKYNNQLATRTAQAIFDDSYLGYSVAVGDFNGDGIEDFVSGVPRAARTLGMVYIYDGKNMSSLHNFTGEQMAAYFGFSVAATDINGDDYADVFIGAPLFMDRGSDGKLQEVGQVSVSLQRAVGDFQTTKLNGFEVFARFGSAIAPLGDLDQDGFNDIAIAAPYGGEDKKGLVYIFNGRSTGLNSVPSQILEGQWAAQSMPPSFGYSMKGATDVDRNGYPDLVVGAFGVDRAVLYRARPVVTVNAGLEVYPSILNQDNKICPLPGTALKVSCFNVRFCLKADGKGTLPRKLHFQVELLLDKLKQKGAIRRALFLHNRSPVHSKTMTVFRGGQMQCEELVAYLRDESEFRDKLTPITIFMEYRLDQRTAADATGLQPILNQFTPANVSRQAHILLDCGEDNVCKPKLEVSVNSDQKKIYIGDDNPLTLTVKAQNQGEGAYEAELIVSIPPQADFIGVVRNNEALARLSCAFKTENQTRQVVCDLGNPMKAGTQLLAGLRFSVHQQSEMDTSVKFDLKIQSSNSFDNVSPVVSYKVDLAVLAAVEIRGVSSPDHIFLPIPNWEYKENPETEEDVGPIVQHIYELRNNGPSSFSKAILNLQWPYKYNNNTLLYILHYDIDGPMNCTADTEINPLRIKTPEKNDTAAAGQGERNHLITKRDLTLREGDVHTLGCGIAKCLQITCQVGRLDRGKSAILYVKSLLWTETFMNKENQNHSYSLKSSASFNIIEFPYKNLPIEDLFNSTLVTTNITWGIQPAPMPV
- T1 sequence (P09055 21-728 limits assumed, form in doubt, chain 2 of 2): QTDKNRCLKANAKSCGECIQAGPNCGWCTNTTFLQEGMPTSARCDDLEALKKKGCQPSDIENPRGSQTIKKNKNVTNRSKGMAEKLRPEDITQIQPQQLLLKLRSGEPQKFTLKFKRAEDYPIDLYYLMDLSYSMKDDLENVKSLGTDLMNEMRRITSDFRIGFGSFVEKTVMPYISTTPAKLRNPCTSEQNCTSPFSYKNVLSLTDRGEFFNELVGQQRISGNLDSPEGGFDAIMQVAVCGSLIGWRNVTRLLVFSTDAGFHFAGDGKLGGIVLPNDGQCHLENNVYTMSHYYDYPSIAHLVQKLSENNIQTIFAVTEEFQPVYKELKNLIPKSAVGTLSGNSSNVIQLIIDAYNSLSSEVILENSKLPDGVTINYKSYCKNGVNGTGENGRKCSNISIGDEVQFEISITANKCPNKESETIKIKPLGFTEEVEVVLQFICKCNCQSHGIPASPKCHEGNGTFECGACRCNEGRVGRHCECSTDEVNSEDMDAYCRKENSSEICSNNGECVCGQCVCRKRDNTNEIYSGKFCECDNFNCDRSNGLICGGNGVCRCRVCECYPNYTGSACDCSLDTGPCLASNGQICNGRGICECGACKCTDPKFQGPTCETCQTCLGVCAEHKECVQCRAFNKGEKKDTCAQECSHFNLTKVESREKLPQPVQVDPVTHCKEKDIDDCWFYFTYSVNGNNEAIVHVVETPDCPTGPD
- Assay explanation: AlphaLISA blocking of mouse fibronectin binding
Quantity measured: pIC50
# reply with the number alone; pIC50 is -log10 of concentration in mol/L

Below, each entry is followed by its recorded pIC50 result.
Ab-33 (antibody, V domains shown) VH: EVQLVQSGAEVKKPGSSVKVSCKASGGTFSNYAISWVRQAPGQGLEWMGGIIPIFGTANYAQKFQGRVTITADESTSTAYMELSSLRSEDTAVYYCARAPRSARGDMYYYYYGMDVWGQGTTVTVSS VL: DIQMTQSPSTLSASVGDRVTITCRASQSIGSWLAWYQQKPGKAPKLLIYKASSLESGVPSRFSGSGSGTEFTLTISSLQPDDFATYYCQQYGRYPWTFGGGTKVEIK    8.35
Ab-30 (antibody, V domains shown) VH: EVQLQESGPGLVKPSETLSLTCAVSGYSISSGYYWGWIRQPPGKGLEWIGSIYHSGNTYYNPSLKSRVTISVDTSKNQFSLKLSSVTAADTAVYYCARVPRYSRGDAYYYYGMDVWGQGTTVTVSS VL: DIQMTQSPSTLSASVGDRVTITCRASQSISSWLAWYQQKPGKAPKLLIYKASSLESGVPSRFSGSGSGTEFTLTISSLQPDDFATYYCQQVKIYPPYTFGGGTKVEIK    8.17

GET /value?item= Ab-29 (antibody, V domains shown) VH: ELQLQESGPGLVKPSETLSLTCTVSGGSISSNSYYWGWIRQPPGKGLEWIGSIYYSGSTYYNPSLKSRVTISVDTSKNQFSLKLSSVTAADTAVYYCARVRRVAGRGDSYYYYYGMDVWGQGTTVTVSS VL: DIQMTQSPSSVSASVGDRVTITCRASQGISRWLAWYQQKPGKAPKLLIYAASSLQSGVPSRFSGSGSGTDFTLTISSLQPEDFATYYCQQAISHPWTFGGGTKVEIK &field=pIC50 returns 8.47

Lab note: measured pIC50 of Ab-31 (antibody, V domains shown) VH: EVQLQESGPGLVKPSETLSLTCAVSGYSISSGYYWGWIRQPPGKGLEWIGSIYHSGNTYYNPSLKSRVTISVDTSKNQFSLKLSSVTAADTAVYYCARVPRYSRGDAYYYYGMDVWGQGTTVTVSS VL: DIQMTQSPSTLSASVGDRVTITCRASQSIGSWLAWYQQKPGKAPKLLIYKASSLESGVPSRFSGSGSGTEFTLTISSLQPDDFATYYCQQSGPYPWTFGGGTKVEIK was 8.18
